- Species on record: Rattus norvegicus
- Assay Method Text: Open TG-GATES - Regimen: Daily Repeat
- Type: toxicity, organism-based, Sprague-Dawley
- Design: regimen Daily Repeat, gender Male, age 6 weeks
- Cond: in vivo, po, 10 mg/kg, […], tissue Blood, route gavage, dose level Low, time 7 day
Listed below: Mono values for each entry.
Use % as the unit, but write only the number.

Example compounds with recorded Mono:
{"Compound": "CN(C)CCN(Cc1cccs1)c1ccccn1", "Readout": "Mono", "Unit Name": "%", "Assay Result": 2}
{"Compound": "CN(C)CCCN1c2ccccc2CCc2ccccc21 [IMIPRAMINE]", "Readout": "Mono", "Unit Name": "%", "Assay Result": 1.8}
{"Compound": "CC(C)OC(=O)C(C)(C)Oc1ccc(C(=O)c2ccc(Cl)cc2)cc1 [FENOFIBRATE]", "Readout": "Mono", "Unit Name": "%", "Assay Result": 2.2}

Now examine the next entry.
get_value(item= CC1=C(/C=C/C(C)=C/C=C/C(C)=C/CO)C(C)(C)CCC1 [RETINOL] , readout=Mono) returns 2.4

* * *

Each entry below lists one item and its recorded KIDNEY_L value.
- Organism: Rattus norvegicus
- Assay Method Text: Open TG-GATES - Regimen: Single
- Type: toxicity, organism-based, Sprague-Dawley
- Design: regimen Single, gender Male, age 6 weeks
- Cond: in vivo, po, 10 mg/kg, 3 h, tissue Kidney, route gavage, dose level Low
Numeric only. Scale: g

For orientation, consider the following solved cases.
{"Compound": "CC(C)OC(=O)C(C)(C)Oc1ccc(C(=O)c2ccc(Cl)cc2)cc1 [FENOFIBRATE]", "Unit Name": "g", "KIDNEY_L": 0.8}
{"Compound": "CC1=C(/C=C/C(C)=C/C=C/C(C)=C/CO)C(C)(C)CCC1", "Unit Name": "g", "KIDNEY_L": 0.9}
{"Compound": "CN(C)CCCN1c2ccccc2CCc2ccc(Cl)cc21", "Unit Name": "g", "KIDNEY_L": 1}
{"Compound": "CN(C)CCN(Cc1cccs1)c1ccccn1", "Unit Name": "g", "KIDNEY_L": 0.8}

Turning to the following compound.
Quick note, KIDNEY_L for CN(C)CCCN1c2ccccc2CCc2ccccc21 landed at 0.9

* * *

- Species on record: Rattus norvegicus
- Assay Method Text: Open TG-GATES - Regimen: Daily Repeat
- Type: toxicity, organism-based, Sprague-Dawley
- Design: regimen Daily Repeat, gender Male, age 6 weeks
- Cond: in vivo, po, 300 mg/kg, […], tissue Blood, route gavage, dose level Middle, time 7 day
RBC by entry:
Respond numerically; units are x10_4/ul and should not be typed.

Example entries begin here.
{"Compound": "CCOc1ccc(NC(=O)CC(C)O)cc1 (stereo not given) [BUCETIN]", "RBC / x10_4/ul": 634.2}
{"Compound": "NC(N)=Nc1nc(CSCCC(N)=NS(N)(=O)=O)cs1 [FAMOTIDINE]", "RBC / x10_4/ul": 629.6}
{"Compound": "COc1ccc2[nH]c([S+]([O-])Cc3ncc(C)c(OC)c3C)nc2c1 (stereo not given) [OMEPRAZOLE]", "RBC / x10_4/ul": 649.8}
{"Compound": "CCOC(=O)CCC(=O)O[C@H]1[C@H](O[C@@H]2[C@@H](C)[C@H](O[C@H]3C[C@@](C)(OC)[C@@H](O)[C@H](C)O3)[C@@H](C)C(=O)O[C@H](CC)[C@@](C)(O)[C@H](O)[C@@H](C)C(=O)[C@H](C)C[C@@]2(C)O)O[C@H](C)C[C@@H]1N(C)C [ERYTHROMYCIN ETHYLSUCCINATE]", "RBC / x10_4/ul": 653}

Here is another compound to look at.
Note to self: RBC recorded for COC1=CC(=O)C[C@@H](C)[C@]12Oc1c(Cl)c(OC)cc(OC)c1C2=O [GRISEOFULVIN] was 646.8

Values from ChEMBL document CHEMBL3885861
